// provenance: the supplement of paper PMC10567573

B1: LCOR (parent)
chain: PCAGSTSLSHSPGCSSTQGNGRPG

Variants of: B1
METHOD: protein stability index of a GFP-peptide fusion (GPS, HEK-293T) (PSI 1-6); higher = more stable;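 also: lentivirally expressed fusions sorted by FACS into six bins by GFP to DsRed ratio, PSI derived from sequencing read proportions per bin multiplied by bin number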
SETUP_CONDITIONS: c terminus: a fixed tail appended
Rule: protein stability index of 4 or more gives satisfied; anything lower gives not satisfied.

[
  {
    "CHANGE": "T6R",
    "CAT": "satisfied"
  },
  {
    "CHANGE": "S11V",
    "CAT": "not satisfied"
  },
  {
    "CHANGE": "G24W",
    "CAT": "not satisfied"
  },
  {
    "CHANGE": "P1E",
    "CAT": "not satisfied"
  },
  {
    "CHANGE": "Q18S",
    "CAT": "not satisfied"
  },
  {
    "CHANGE": "G19N",
    "CAT": "not satisfied"
  }
]
